Target: SARS-CoV-1 RBD WT (SARS-CoV-1, UniProt P59594 306-527)
Assay: ELISA
readout kind: binding result

INSERT INTO measurements (binder, readout_kind, result) VALUES
  ('S564-152 (antibody, V domains shown) VH: QVQLVESGGGVVQPGRSLRLSCAASGFTFSYYGMHWVRQAPGKGLEWVAVIWYDGSNKHYADSVKGRFTISRDNSKNTLYLQMNSLRAEDTAVYYCAKNAAPYCSGGSCYGTYFDYWGQGTLVTVSS VL: DIQMTQSPSSLSASVGDRVTITCQASQDINNYLNWYQQKPGKAPKLLIYDASNLETGVPSRFSGSGSGTDFTFTISSLQPEDIATYYCQQYDNVPPHTFGQGTKLEIK', 'binding result', 'binds'),
  ('S24-1384 (antibody, V domains shown) VH: EVQLVESGGGLVQPGGSLRLSCAVSGFTFSSYSMNWVRQAPGKGLEWVSYISSSSSIIYYADSVKGRFTISRDNAKNSLYLQMNSLRAEDTAVYYCARDFLDYSRSYSYGMDVWGQGTTVTVSS VL: SYVLTQPPSVSVAPGQTARITCGGDNIGSKNVHWYQQKPGQAPVLVVFDDSDRPSGIPERFSGSNSGNTATLTISRVEAGDEADYYCQVWDSSSDHYVVFGGGTKLTVL', 'binding result', 'binds');

Data credit: patent US20250026814A1
